These data points were gathered from paper PMC10720709.

Test system: MCF-7 cells
Assay: MTT cell viability assay, MCF-7
Type: cell-based
Settings: Homo sapiens, MCF7; MCF-7, MTT, 72 h; read-out: Cytotoxicity IC50
READOUT_TYPE: IC50 (µM)
Note: unit µM is implicit; provide only the numeric part.

Example entries begin here.
>>> numeric_result("Cc1ccc(C(=O)Nc2cc(Cc3n[nH]c(=O)c4ccccc34)cc(-c3c(C)noc3C)c2)cc1")
12.5
>>> numeric_result("O=C(c1cc(Cc2n[nH]c(=O)c3ccccc23)ccc1F)N1CCN(C(=O)C2CC2)CC1 [Olaparib, reference compound]")
8.7

Let's switch to this molecule now.
(Q) What does the data say about its IC50? Entry: Cc1noc(C)c1-c1cc(Cc2n[nH]c(=O)c3ccccc23)cc(NC(=O)c2ccccc2C(F)(F)F)c1
(A) 4.9
